target: Glycogen synthase kinase-3 (Sus scrofa, UniProt B2LUN4+I6LNT8); test: Inhibition of porcine brain GSK-3alpha/beta using YRRAAVPPSPSLSRHSSPHQpSEDEEE as substrate incubated for 30 mins in presence of ATP by scintillation counting method; format: tissue-based
reported_property: IC50 (µM)
Respond numerically; units are µM and should not be typed.

- CCCNC1=N/C(=C\c2ccc3c(c2)OCO3)C(=O)N1: 4.1

Known value: Glycogen synthase kinase-3 (Sus scrofa, UniProt B2LUN4+I6LNT8) IC50 of the molecule Cc1ccc(NC2=N/C(=C\c3ccc4c(c3)OCO4)C(=O)N2)c(C)c1 equals 1.4

Entry O=C1NC(Nc2ccc(N3CCNCC3)cc2)=N/C1=C\c1ccc2c(c1)OC=CO2 : IC50 on Glycogen synthase kinase-3 (Sus scrofa, UniProt B2LUN4+I6LNT8) = 4.6

Sample O=C1NC(Nc2ccccc2)=N/C1=C\c1ccc(O)c(O)c1 , system: Glycogen synthase kinase-3 (Sus scrofa, UniProt B2LUN4+I6LNT8). Its IC50 is 1.2

Provenance of the data: ChEMBL document CHEMBL5126517
